Reference for the values: patent US20210061891A1

- TARGET_ENTITY: T1, residue mutated to A: G (also: biotinylated, attachment site not given here)
- T1 construct: position from the legend (CFH1114-1121)
- T1 peptide: GPPPPIDNADITSFP
- ASSAY_EXPLANATION: ELISA on streptavidin-immobilized biotinylated 15mer peptides; area under the signal vs antibody concentration curve;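 note: antibody binding to each alanine-substituted peptide expressed relative to binding to the natural peptide, using curve area determined separately for every peptide-antibody pair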
Ends that are not written are not given here.
Recorded percent of binding to the natural peptide (AUC) by entry
Answer in %, number only, no unit symbol.

Solved entries:
>>> observed_value("Ab7955 (antibody, V domains shown, Recombinant human mAb) VH: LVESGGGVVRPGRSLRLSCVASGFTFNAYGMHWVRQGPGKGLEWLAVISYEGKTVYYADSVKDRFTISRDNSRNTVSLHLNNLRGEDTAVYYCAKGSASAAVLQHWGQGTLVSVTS VL: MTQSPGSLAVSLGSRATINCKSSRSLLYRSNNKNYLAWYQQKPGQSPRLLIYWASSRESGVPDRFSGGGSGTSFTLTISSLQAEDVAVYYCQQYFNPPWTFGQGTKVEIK")
104
>>> observed_value("Ab7961/293i (antibody, V domains shown, Recombinant human mAb) VH: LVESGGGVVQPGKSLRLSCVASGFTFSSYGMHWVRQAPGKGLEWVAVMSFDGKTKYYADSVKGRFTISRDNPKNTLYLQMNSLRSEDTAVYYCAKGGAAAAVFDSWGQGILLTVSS VL: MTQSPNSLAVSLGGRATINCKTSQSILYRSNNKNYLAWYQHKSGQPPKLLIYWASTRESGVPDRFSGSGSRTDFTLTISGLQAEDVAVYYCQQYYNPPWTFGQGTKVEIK")
104

Consider the record given below.
input: What measured percent of binding to the natural peptide (AUC) goes with Ab7979 (antibody, V domains shown, Recombinant human mAb) VH: LVESGGGVVQPGKSLRLSCVASGFTFSTYGMHWVRQAPGKGLEWVAVMSFDGKTKYYADSVKGRFTISRDNPKNTLYLQMNSLRSEDTAVYYCAKGGAAAAVFDSWGQGILLTVSS VL: MTQSPNSLAVSLGGRATINCKTSQSILYRSNNKNYLAWYQHKPGQPPKLLIYWASTRESRVPDRFSGSGSRTDFTLTISGLQAEDVAVYYCQQYYNPPWTFGQGTKVEIK ?
output: 102
